- SUBJECT_OF_TEST: T1, mature human TGF-β3 (human, UniProt P10600 301-412)
- T1 construct: Bought protein (RDI, Cat # RDI-1036/CF); also called TGF-b3
- T1 sequence: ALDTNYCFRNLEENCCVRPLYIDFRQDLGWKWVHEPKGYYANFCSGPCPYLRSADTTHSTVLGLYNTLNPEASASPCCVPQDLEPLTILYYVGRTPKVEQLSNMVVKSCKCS
- TEST_DETAILS: BIAcore 2000 SPR, antibody captured on Protein A, TGF-β injected
ENDPOINT_LABEL: koff (s⁻¹)
Answers are plain numbers, in s⁻¹.

koff reported for this binder mAb 3.A (antibody, human IgG4 S228P, kappa, V domains shown, Full-length monoclonal antibody, made by linking the Fab to an IgG4 Fc region) VH: QVQLVQSGAEVKKPGASVKVSCKASGYTFTSYWMNWVRQAPGQGLEWMGQIFPASGSTNYGEMFEGRVTMTTDTSTSTAYMELRSLRSDDTAVYYCARGIGNYALDAMDYWGQGTLVTVSS VL: DIQMTQSPSSLSASVGDRVTITCRASESVDFWGNSFMHWYQQKPGKAPKLLIYLASNLESGVPSRFSGSGSGTDFTLTISSLQPEDFATYYCQQNIEDPLTFGGGTKVEIKR : 2.38e-05
